Test: Normal boiling point (thermophysical properties)
Type: physicochemical
Reported Normal Boiling Point values for the following compounds.
Expressed in °C, but write only the number.

Some solved cases for reference:
FC1(F)C(F)(F)C(F)(F)C2(F)OC2(F)C1(F)F (stereo not drawn) [Example 2]; 56.1
FC(F)(F)C(F)(F)C(F)(F)C(F)(F)C(F)(F)C(F)(F)F [Comparative 1, Perfluorohexane]; 56
CCOC(F)(C(F)(F)C(F)(F)C(F)(F)F)C(F)(C(F)(F)F)C(F)(F)F (stereo not drawn) [Comparative 3]; 128
FC(F)(F)C(F)(F)C(F)(F)N(C(F)(F)C(F)(F)C(F)(F)F)C(F)(F)C(F)(F)C(F)(F)F [Comparative 4, Perfluorotripropylamine]; 130
O=C(C(F)(F)C(F)(F)F)C(F)(C(F)(F)F)C(F)(F)F [Comparative 2, Dodecafluoro-2-methylpentan-3-one]; 49

Consider now this further compound.
Provide measured Normal Boiling Point value, entry: FC(F)(F)C1(F)OC1(F)C(F)(C(F)(F)F)C(F)(F)F (stereo not drawn) [Example 1] 51.7

* * *

Assay: Vapor pressure
Assay type: physicochemical
Reported Vapor Pressure @ 25° C. values for the following molecules.

Some solved cases for reference:
FC(F)(F)C1(F)OC1(F)C(F)(C(F)(F)F)C(F)(F)F (stereo not drawn); 36.0 kPa
FC(F)(F)C(F)(F)C(F)(F)C(F)(F)C(F)(F)C(F)(F)F; 30.0 kPa
FC(F)(F)C(F)(F)C(F)(F)N(C(F)(F)C(F)(F)C(F)(F)F)C(F)(F)C(F)(F)C(F)(F)F; 1.4 kPa
O=C(C(F)(F)C(F)(F)F)C(F)(C(F)(F)F)C(F)(F)F; 40.4 kPa
CCOC(F)(C(F)(F)C(F)(F)C(F)(F)F)C(F)(C(F)(F)F)C(F)(F)F (stereo not drawn); 2.1 kPa

Consider now this further molecule.
Provide measured Vapor Pressure @ 25° C. value, entry: FC1(F)C(F)(F)C(F)(F)C2(F)OC2(F)C1(F)F (stereo not drawn) 30.3 kPa

* * *

Assay: Pour point (thermophysical properties)
Type: physicochemical
Reported Pour Point values for the following molecules.
Expressed in °C, but write only the number.

FC(F)(F)C(F)(F)C(F)(F)N(C(F)(F)C(F)(F)C(F)(F)F)C(F)(F)C(F)(F)C(F)(F)F; −50

Provide measured Pour Point value, entry: `FC(F)(F)C(F)(F)C(F)(F)C(F)(F)C(F)(F)C(F)(F)F` −90

* * *

Assay: Kinematic viscosity
Assay type: physicochemical
Details: 25° C.; kinematic viscosity
measure-name: Viscosity @ 25° C.

FC(F)(F)C(F)(F)C(F)(F)C(F)(F)C(F)(F)C(F)(F)F; 3.8 ×10^−7 m^2/s
FC(F)(F)C(F)(F)C(F)(F)N(C(F)(F)C(F)(F)C(F)(F)F)C(F)(F)C(F)(F)C(F)(F)F; 7.5 ×10^−7 m^2/s
FC(F)(F)C1(F)OC1(F)C(F)(C(F)(F)F)C(F)(F)F (stereo not drawn); 3.7 ×10^−7 m^2/s
CCOC(F)(C(F)(F)C(F)(F)C(F)(F)F)C(F)(C(F)(F)F)C(F)(F)F (stereo not drawn); 7.7 ×10^−7 m^2/s
FC1(F)C(F)(F)C(F)(F)C2(F)OC2(F)C1(F)F (stereo not drawn); 6.6 ×10^−7 m^2/s

Consider now this further compound.
Provide measured Viscosity @ 25° C. value, entry: `O=C(C(F)(F)C(F)(F)F)C(F)(C(F)(F)F)C(F)(F)F` 4.0 ×10^−7 m^2/s

From: patent US20140009887A1
